- Tested on: ITK;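 further: KINOMEscan kinase panel screen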
- statedConditions: concentration: 1 μM, replicates: in singlicate; n = 1
measuredEndpoint: %Inh (%)
Numbers only, in %.

Batch lookup, %Inh per entry.
1. COC(=O)c1cccc(NC(=O)NCCNc2ccnc(Nc3ccc(F)cc3)n2)c1
2. C[C@@H]1CCN(C(=O)CO)C[C@@H]1N(C)c1ncnc2[nH]ccc12
3. O=C(c1ccc(-c2cc(-c3c[nH]nc3-c3ccccn3)ccn2)cc1)N1CCCC1
4. Fc1ccc(-c2ncn(CCCNCc3ccccc3)c2-c2ccncc2)cc1
5. CCC(CC)(CC)n1cnc2c(N)ncnc21

Reply:
1: 11; 2: 0; 3: 0; 4: 21; 5: 9
